# subject.of.test: UniProt:P13569
# measurement.protocol: Corrector Assay A - membrane potential dye assay (enteroid cells)
# recorded.conditions: % of chloride transport of triple combination control (1 μM (14S)-dispiro macrocycle + 3 μM tezacaftor + 300 nM ivacaftor)

[
  {
    "compound": "CC(C)(C)c1ccc2c(n1)N1C[C@@H](CCC(C(=O)NC3CC4(CCNCC4)C3)Nc3cccc(n3)S(=O)(=O)NC2=O)CC1(C)C (single isomer, unassigned)",
    "subject.of.test": "UniProt:P13569",
    "Corrector Assay A % activity": "++ (++ is 30-60%)"
  },
  {
    "compound": "CC(C)(C)c1ccc2c(n1)N1C[C@@H](CCC(c3ccc(CCCN)cn3)Nc3cccc(n3)S(=O)(=O)NC2=O)CC1(C)C (stereo partly drawn) [Compound 138]",
    "subject.of.test": "UniProt:P13569",
    "Corrector Assay A % activity": "++ (++ is 30-60%)"
  }
]

* * *

# subject.of.test: CFTR-mediated chloride transport (Homo sapiens, UniProt P13569)
# measurement.protocol: Corrector Assay A - membrane potential dye assay (enteroid cells)
# recorded.conditions: % of chloride transport of triple combination control (1 μM (14S)-dispiro macrocycle + 3 μM tezacaftor + 300 nM ivacaftor)

[
  {
    "compound": "CC(C)(C)c1ccc2c(n1)N1C[C@@H](CCC(c3ccc(C4CCOCC4)cn3)Nc3cccc(n3)S(=O)(=O)NC2=O)CC1(C)C (single isomer, unassigned) [Compound 155]",
    "Corrector Assay A % activity": "+++ (+++ is >60%)"
  },
  {
    "compound": "CC1(C)CCC(c2ccc3c(n2)N2C[C@@H](CC[C@H](c4ccccn4)Nc4cccc(n4)S(=O)(=O)NC3=O)CC2(C)C)CC1",
    "Corrector Assay A % activity": "+++ (+++ is >60%)"
  },
  {
    "compound": "CC(C)(C)c1ccc2c(n1)N1C[C@@H](CCC(c3cccnc3)Nc3cccc(n3)S(=O)(=O)NC2=O)CC1(C)C (single isomer, unassigned) [Compound 282]",
    "Corrector Assay A % activity": "+++ (+++ is >60%)"
  }
]

* * *

# subject.of.test: CFTR-mediated chloride transport (Homo sapiens)
# measurement.protocol: Corrector Assay A - membrane potential dye assay (enteroid cells)
# recorded.conditions: % of chloride transport of triple combination control (1 μM (14S)-dispiro macrocycle + 3 μM tezacaftor + 300 nM ivacaftor)
quantity: Corrector Assay A % activity

[
  {
    "compound": "CC(C)(C)c1ccc2c(n1)N1C[C@@H](CCC(c3ccc(N4CCCC4)cn3)Nc3cccc(n3)S(=O)(=O)NC2=O)CC1(C)C (some centres unmarked) [Compound 164]",
    "subject.of.test": "CFTR-mediated chloride transport (Homo sapiens)",
    "Corrector Assay A % activity": "+++ (+++ is >60%)"
  },
  {
    "compound": "CN(C)Cc1ccnc([C@@H]2CC[C@@H]3CN(c4nc(C(C)(C)C)ccc4C(=O)NS(=O)(=O)c4cccc(n4)N2)C(C)(C)C3)c1 (single isomer, unassigned) [Compound 86]",
    "subject.of.test": "CFTR-mediated chloride transport (Homo sapiens)",
    "Corrector Assay A % activity": "++ (++ is 30-60%)"
  },
  {
    "compound": "COC(=O)N1CCC(c2ccnc(C3CC[C@@H]4CN(c5nc(C(C)(C)C)ccc5C(=O)NS(=O)(=O)c5cccc(n5)N3)C(C)(C)C4)c2)CC1 (some centres unmarked) [Compound 96]",
    "subject.of.test": "CFTR-mediated chloride transport (Homo sapiens)",
    "Corrector Assay A % activity": "+++ (+++ is >60%)"
  },
  {
    "compound": "CC(C)(C)C#Cc1ccc2c(n1)N1C[C@@H](CC[C@H](c3ccccn3)Nc3cccc(n3)S(=O)(=O)NC2=O)CC1(C)C [Compound 177]",
    "subject.of.test": "CFTR-mediated chloride transport (Homo sapiens)",
    "Corrector Assay A % activity": "+++ (+++ is >60%)"
  },
  {
    "compound": "CC1(C)CC2CCC(c3ccccc3)Nc3cccc(n3)S(=O)(=O)NC(=O)c3ccc(-n4ccc(OCCC5(C(F)(F)F)CC5)n4)nc3N1C2 (single isomer, unassigned) [Compound 383]",
    "subject.of.test": "CFTR-mediated chloride transport (Homo sapiens)",
    "Corrector Assay A % activity": "++ (++ is 30-60%)"
  }
]

Record CC(C)(C)c1ccc2c(n1)N1C[C@@H](CCC(c3cncnc3)Nc3cccc(n3)S(=O)(=O)NC2=O)CC1(C)C (single isomer, unassigned) [Compound 297] , field Corrector Assay A % activity: +++ (+++ is >60%)

# Corrector Assay A % activity (compound: CC(C)(C)c1ccc2c(n1)N1C[C@@H](CC[C@@H](c3cc(-c4cc[nH]n4)ccn3)Nc3cccc(n3)S(=O)(=O)NC2=O)CC1(C)C (single isomer, unassigned) [Compound 73] ) is +++ (+++ is >60%)

Summary for this compound, CC(C)(C)c1ccc2c(n1)N1C[C@@H](CC[C@H](c3cccc(-c4cn[nH]c4)n3)Nc3cccc(n3)S(=O)(=O)NC2=O)CC1(C)C [Compound 67] : Corrector Assay A % activity is +++ (+++ is >60%)

The recorded Corrector Assay A % activity for CC(C)(C)c1ccnc(C2CC[C@@H]3CN(c4nc(C(C)(C)C)ncc4C(=O)NS(=O)(=O)c4cccc(n4)N2)C(C)(C)C3)c1 (single isomer, unassigned) [Compound 2] is +++ (+++ is >60%)

Entry COc1cccc(-c2ccc3c(n2)N2C[C@@H](CC[C@@H](c4ccccn4)Nc4cccc(n4)S(=O)(=O)NC3=O)CC2(C)C)n1 [Compound 338] ; Corrector Assay A % activity = +++ (+++ is >60%)
